This document collects EC50 values reported for Progesterone receptor (Homo sapiens, UniProt P06401).
value_type: EC50 (nM)

A selection of reference data follows.
compound=CC1=CC(C)(C)Nc2ccc3c(c21)COc1ccc(-c2ccccc2)cc1-3 value_type=EC50 unit_label=nM measured=2030
compound=CC1=CC(C)(C)Nc2ccc3c(c21)COc1c(F)cc(C#N)cc1-3 value_type=EC50 unit_label=nM measured=16.7
compound=CC1=CC(C)(C)Nc2ccc3c(c21)COc1c(C)cc(Cl)cc1-3 value_type=EC50 unit_label=nM measured=178
compound=CC1=CC(C)(C)Nc2ccc3c(c21)COc1ccc([N+](=O)[O-])cc1-3 value_type=EC50 unit_label=nM measured=28.6

[1] COc1cc(Br)cc2c1OCc1c-2ccc2c1C(C)=CC(C)(C)N2
[2] CC1CC(C)(C)Nc2ccc3c(c21)COc1c-3cc(F)cc1[N+](=O)[O-] (stereo not given)
[3] COc1ccc2c(c1)-c1ccc3c(c1CO2)C(C)=CC(C)(C)N3
// query List from greatest to least EC50. // ordering of labels required in reply
// result 2, 3, 1
(2: 781 nM, 3: 170 nM, 1: 43 nM)

---

# target_or_test_system: Progesterone receptor (Homo sapiens)
# Sequence (P06401 whole entry): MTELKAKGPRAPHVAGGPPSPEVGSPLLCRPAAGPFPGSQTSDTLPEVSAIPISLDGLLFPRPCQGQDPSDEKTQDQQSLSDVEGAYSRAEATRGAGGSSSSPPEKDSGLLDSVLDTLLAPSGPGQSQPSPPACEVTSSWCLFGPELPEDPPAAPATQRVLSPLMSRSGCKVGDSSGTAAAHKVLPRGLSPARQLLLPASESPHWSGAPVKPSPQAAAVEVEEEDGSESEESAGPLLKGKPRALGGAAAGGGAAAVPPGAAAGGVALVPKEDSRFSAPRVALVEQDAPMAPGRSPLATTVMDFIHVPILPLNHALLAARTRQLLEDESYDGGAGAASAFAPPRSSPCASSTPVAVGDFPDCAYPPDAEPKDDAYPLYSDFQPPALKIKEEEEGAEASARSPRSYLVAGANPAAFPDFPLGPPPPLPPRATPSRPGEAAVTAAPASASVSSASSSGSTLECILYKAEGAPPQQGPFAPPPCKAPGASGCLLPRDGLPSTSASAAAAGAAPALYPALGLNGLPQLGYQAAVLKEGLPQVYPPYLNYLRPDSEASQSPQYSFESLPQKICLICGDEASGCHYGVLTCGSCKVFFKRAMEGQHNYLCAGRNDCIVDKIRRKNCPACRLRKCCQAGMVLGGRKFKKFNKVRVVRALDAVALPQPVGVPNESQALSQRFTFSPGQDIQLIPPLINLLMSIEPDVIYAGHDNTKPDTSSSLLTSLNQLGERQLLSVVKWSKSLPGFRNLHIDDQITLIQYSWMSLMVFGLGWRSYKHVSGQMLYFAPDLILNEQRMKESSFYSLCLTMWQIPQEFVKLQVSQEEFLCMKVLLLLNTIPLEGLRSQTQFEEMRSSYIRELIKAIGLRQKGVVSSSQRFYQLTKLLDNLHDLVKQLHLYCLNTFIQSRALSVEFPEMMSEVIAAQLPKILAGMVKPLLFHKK
# assay_info: Binding towards human progesterone receptor; Not tested
value_type: Ki (nM)
Give the value, in units of nM, as a plain number.

// query Please report Ki for the following compound: "CC1=CC(C)(C)Nc2ccc3c(c21)COc1c-3cc(Br)c(C=O)c1F"
// result 290

---

# target_or_test_system: Androgen receptor (Homo sapiens, UniProt P10275)
# Sequence (P10275 whole entry): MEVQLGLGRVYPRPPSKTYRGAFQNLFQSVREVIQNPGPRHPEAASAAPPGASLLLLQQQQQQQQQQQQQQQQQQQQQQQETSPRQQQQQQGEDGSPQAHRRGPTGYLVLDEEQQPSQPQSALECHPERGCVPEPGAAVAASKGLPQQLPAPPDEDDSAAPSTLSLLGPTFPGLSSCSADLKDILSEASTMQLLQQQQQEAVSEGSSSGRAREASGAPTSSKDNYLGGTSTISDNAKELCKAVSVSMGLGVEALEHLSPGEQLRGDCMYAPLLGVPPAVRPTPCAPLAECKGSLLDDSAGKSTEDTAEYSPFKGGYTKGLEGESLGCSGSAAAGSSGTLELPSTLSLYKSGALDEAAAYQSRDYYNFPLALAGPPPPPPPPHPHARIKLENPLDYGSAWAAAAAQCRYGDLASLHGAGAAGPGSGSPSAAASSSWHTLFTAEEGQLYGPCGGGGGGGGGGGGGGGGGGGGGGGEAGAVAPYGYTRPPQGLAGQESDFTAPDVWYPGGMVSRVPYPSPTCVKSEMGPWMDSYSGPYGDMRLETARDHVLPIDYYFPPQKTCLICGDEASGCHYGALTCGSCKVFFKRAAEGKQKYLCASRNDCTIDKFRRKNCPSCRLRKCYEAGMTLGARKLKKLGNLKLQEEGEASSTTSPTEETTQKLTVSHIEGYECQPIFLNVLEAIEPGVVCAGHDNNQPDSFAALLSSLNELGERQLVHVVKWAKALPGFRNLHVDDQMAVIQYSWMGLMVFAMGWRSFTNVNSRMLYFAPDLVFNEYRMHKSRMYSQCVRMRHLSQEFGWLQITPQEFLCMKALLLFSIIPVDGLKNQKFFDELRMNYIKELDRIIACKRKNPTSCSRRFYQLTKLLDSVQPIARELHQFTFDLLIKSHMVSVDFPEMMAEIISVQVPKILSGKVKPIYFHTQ
# assay_info: Inhibition of antagonist activity towards human androgen receptor
# Type: functional
value_type: IC50 (nM)
Field: numeric (nM). Do not append units.

// query Fill in reported IC50 for this entry: CC1CC(C)(C)Nc2ccc3c(c21)COc1c(F)cc(F)cc1-3 (stereo unspecified)
// result 147

---

# target_or_test_system: Progesterone receptor (Homo sapiens)
# assay_info: Inhibition of human progesterone in T47D human breast cancer cell
# Format: cell-based
pIC50: −log10 of the molar value.
value_type: pIC50

[P] CC1=CC(C)(C)Nc2ccc3c(c21)COc1c(F)cc(F)cc1-3
[Q] COc1ccc2c(c1)OCc1c-2ccc2c1C(C)=CC(C)(C)N2
// query Thinking about recorded pIC50 values, which is higher, P or Q ? Answer by quoting the chosen item's label.
// result P

---

# target_or_test_system: Androgen receptor (Homo sapiens, UniProt P10275)
# assay_info: Inhibition of antagonist activity towards human Androgen receptor
# Type: functional
value_type: IC50 (nM)

[a] CC1=CC(C)(C)Nc2ccc3c(c21)COc1c(F)cc(F)cc1-3
[b] CC1=CC(C)(C)Nc2ccc3c(c21)COc1c(F)cc(Cl)cc1-3
// query Lower value for measured IC50? Options: a , b // output: label of the selected item
// result b

---

# target_or_test_system: Progesterone receptor (Homo sapiens)
# assay_info: Effective concentration for human progesterone in T47D human breast cancer cell
# Format: cell-based, Cancer cell lines
value_type: pEC50
# log scale: pEC50 equals minus log10 of the concentration in mol/L

// query Please report pEC50 for the following molecule: "CC1=CC(C)(C)Nc2ccc3c(c21)COc1c(F)cc(F)cc1-3"
// result 6.61

---

# target_or_test_system: Progesterone receptor (Homo sapiens)
# assay_info: Antagonist efficacy for human progesterone in CV-1 cells
# Type: functional, cell-based
value_type: Efficacy (%)

smiles_notation=CC1=CC(C)(C)Nc2ccc3c(c21)COc1c(F)cc(Cl)cc1-3 measured=74
smiles_notation=CC1=CC(C)(C)Nc2ccc3c(c21)COc1c(F)cc(F)cc1-3 measured=83
smiles_notation=COc1ccc2c(c1)OCc1c-2ccc2c1C(C)=CC(C)(C)N2 measured=85
smiles_notation=CC1=CC(C)(C)Nc2ccc3c(c21)COc1c(Br)cc(Br)cc1-3 measured=86

---

# target_or_test_system: Progesterone receptor (Homo sapiens, UniProt P06401)
pEC50: −log10 of the molar value.
value_type: pEC50

smiles_notation=CC1=CC(C)(C)Nc2ccc3c(c21)COc1ccc([N+](=O)[O-])cc1-3 measured=6.59

[I] CC1=CC(C)(C)Nc2ccc3c(c21)COc1c(F)cc(C#N)cc1-3
[II] CC1=CC(C)(C)Nc2ccc3c(c21)COc1ccc(Br)cc1-3
// query Just tell me: smaller pEC50 value, I or II ? Write down the label of the entry you select.
// result II
(II: 6.26, I: 7.07)

---

# target_or_test_system: Progesterone receptor (Homo sapiens, UniProt P06401)
# assay_info: Effective concentration for antagonistic activity towards human progesterone in CV-1 cells
# Assay type: functional, cell-based
pEC50: −log10 of the molar value.
value_type: pEC50

Guide cases for pEC50, answers given:
smiles_notation=CC1=CC(C)(C)Nc2ccc3c(c21)COc1c(F)cc(Cl)cc1-3 measured=7.87
smiles_notation=COc1ccc2c(c1)OCc1c-2ccc2c1C(C)=CC(C)(C)N2 measured=6.71

[a] CC1=CC(C)(C)Nc2ccc3c(c21)COc1c(F)cc(F)cc1-3
[b] CC1=CC(C)(C)Nc2ccc3c(c21)COc1c(Br)cc(Br)cc1-3
// query Please indicate which item has the smaller measured pEC50: a versus b // respond with label for picked entry
// result b
(b: 5.73, a: 7.60)

---

# target_or_test_system: Progesterone receptor (Homo sapiens)
# Sequence (P06401 whole entry): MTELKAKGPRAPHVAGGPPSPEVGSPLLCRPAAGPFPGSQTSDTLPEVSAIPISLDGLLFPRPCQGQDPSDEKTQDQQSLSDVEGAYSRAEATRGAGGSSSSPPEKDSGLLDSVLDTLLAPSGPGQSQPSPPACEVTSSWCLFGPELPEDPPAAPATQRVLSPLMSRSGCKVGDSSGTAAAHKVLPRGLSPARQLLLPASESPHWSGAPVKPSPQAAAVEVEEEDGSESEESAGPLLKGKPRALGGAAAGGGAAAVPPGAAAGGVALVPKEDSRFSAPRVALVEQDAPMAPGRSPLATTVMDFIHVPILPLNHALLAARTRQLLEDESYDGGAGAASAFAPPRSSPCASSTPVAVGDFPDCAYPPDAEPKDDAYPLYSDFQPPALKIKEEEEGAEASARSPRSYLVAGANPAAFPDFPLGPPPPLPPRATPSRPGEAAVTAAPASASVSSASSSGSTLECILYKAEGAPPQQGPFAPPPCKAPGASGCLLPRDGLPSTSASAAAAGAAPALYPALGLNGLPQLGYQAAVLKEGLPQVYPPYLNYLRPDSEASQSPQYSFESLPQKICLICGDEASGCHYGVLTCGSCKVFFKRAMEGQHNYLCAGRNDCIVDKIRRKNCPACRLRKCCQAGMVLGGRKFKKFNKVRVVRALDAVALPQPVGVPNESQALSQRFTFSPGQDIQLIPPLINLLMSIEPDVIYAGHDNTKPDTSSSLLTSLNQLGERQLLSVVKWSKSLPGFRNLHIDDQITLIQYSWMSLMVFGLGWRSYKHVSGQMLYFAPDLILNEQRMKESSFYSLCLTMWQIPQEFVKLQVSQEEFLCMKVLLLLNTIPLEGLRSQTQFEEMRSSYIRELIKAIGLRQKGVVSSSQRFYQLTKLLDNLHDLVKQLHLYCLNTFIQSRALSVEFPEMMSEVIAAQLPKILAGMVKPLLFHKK
pKi: −log10 of the molar value.
value_type: pKi

Below, 4 molecules whose answers are already recorded.
molecule="CC1CC(C)(C)Nc2ccc3c(c21)COc1c-3cc(F)cc1[N+](=O)[O-] (centres undefined)" measured=6.43
molecule=CC1=CC(C)(C)Nc2ccc3c(c21)COc1ccc(Br)cc1-3 measured=7.82
molecule=CC1=CC(C)(C)Nc2ccc3c(c21)COc1c(F)cc(C#N)cc1-3 measured=8.35
molecule=CC1=CC(C)(C)Nc2ccc3c(c21)COc1ccc([N+](=O)[O-])cc1-3 measured=8.17

[I] CC1=CC(C)(C)Nc2ccc3c(c21)COc1c(F)cc(Br)cc1-3
[II] CC1=CC(C)(C)Nc2ccc3c(c21)COc1c(C)cc(Cl)cc1-3
[III] Cc1cc(F)cc2c1OCc1c-2ccc2c1C(C)CC(C)(C)N2 (centres undefined)
[IV] CC1CC(C)(C)Nc2ccc3c(c21)COc1c(F)cc(F)cc1-3 (centres undefined)
[V] COc1ccc2c(c1)-c1ccc3c(c1CO2)C(C)=CC(C)(C)N3
// query Rank order required: pKi, descending. Provide the ranking by listing each label in its place in the requested order.
// result I, IV, V, II, III

[P] CC1=CC(C)(C)Nc2ccc3c(c21)COc1c(F)cccc1-3
[Q] COc1cc(Br)cc2c1OCc1c-2ccc2c1C(C)=CC(C)(C)N2
// query For the pair P and Q , which member has the lower pKi number? When you have decided, please share the label of that item.
// result Q
(Q: 6.32, P: 6.61)

Every entry's value here was drawn from ChEMBL document CHEMBL1144945.
